experiment: Evaluation 1: Solubility Measurement (dissolution state in dilution solvents); type: physicochemical; settings: solvent CH2Cl2 added to 0.5 g of compound; stirred at 25° C. and 100 rpm for one hour
property label: Amount of dissolved compound (wt %), CH2Cl2

Field: example entries. Status: answers known.
| molecule | recorded result |
| --- | --- |
| CCN(CC)c1ccc2c(-c3ccccc3S(=O)(=O)O)c3ccc(=[N+](CC)CC)cc-3oc2c1 [Chemical Formula X-1, reference compound] | <1% wt % |
| C=C(C)C(=O)OCCNC(=O)OCCN(CCCC)c1ccc2c(-c3ccccc3S(=O)(=O)[N-]S(=O)(=O)C(F)(F)F)c3cc/c(=[N+](/CCCC)CCOC(=O)NCCOC(=O)C(=C)C)cc-3oc2c1 | >10% wt % |
| C=CC(=O)OCCNC(=O)OCCN(CC)c1ccc2c(-c3ccccc3S(=O)(=O)[O-])c3cc/c(=[N+](/CC)CCOC(=O)NCCOC(=O)C=C)cc-3oc2c1 | >10% wt % |
| CCN(CCOC(=O)NC1CCCCC1)c1ccc2c(-c3ccccc3S(=O)(=O)[O-])c3cc/c(=[N+](/CC)CCOC(=O)NC4CCCCC4)cc-3oc2c1 | >10% wt % |

Would you kindly look at the next entry?
Ask: Write down Amount of dissolved compound (wt %), CH2Cl2 measured for item CCN(CCOC(=O)Nc1ccccc1)c1ccc2c(-c3ccccc3S(=O)(=O)[N-]S(=O)(=O)C(F)(F)F)c3ccc(=[N+](CC)CC)cc-3oc2c1
Result: >10% wt %

###

Catalogue of Amount of dissolved compound (wt %), Cyclohexanone values
assay: Evaluation 1: Solubility Measurement (dissolution state in dilution solvents); type: physicochemical; details: solvent cyclohexanone added to 0.5 g of compound; stirred at 25° C. and 100 rpm for one hour

Field: example entries. Status: answers known.
| chemical string | recorded result |
| --- | --- |
| C=C(C)C(=O)OCCNC(=O)OCCN(CCCC)c1ccc2c(-c3ccccc3S(=O)(=O)[O-])c3cc/c(=[N+](/CCCC)CCOC(=O)NCCOC(=O)C(=C)C)cc-3oc2c1 | >5% wt % |
| C=C(C)C(=O)OCCNC(=O)OCCN(CCCC)c1ccc2c(-c3ccccc3S(=O)(=O)[N-]S(=O)(=O)C(F)(F)F)c3cc/c(=[N+](\CC)CCCC)cc-3oc2c1 | >3% wt % |

Would you kindly look at the next entry?
Ask: Write down Amount of dissolved compound (wt %), Cyclohexanone measured for item C=C(C)c1cccc(C(C)(C)NC(=O)OCCN(CC)c2ccc3c(-c4ccccc4S(=O)(=O)[O-])c4cc/c(=[N+](/CC)CCOC(=O)NC(C)(C)c5cccc(C(=C)C)c5)cc-4oc3c2)c1
Result: >5% wt %

###

Catalogue of Amount of dissolved compound (wt %), MeOH values
Assay: Evaluation 1: Solubility Measurement (dissolution state in dilution solvents)
Type: physicochemical
Conditions: solvent MeOH added to 0.5 g of compound; stirred at 25° C. and 100 rpm for one hour
Procedure: Evaluation 1: Solubility Measurement Dilution solvents (MeOH, CH2Cl2, cyclohexanone) were respectively added to 0.5 g of the compounds represented by Chemical Formula 6-1 to Chemical Formula 17-2 and the compound represented by Chemical Formula X-1, and each solution was stirred with Mixrotar VMR-5 (Iuchi Seieido Co., Ltd.) at 25° C. and 100 rpm for one hour.

Field: example entries. Status: answers known.
| chemical string | recorded result |
| --- | --- |
| CCN(CCOC(=O)NC1CCCCC1)c1ccc2c(-c3ccccc3S(=O)(=O)[N-]S(=O)(=O)C(F)(F)F)c3ccc(=[N+](CC)CC)cc-3oc2c1 | >10% wt % |
| C=C(C)c1cccc(C(C)(C)NC(=O)OCCN(CC)c2ccc3c(-c4ccccc4S(=O)(=O)[O-])c4cc/c(=[N+](/CC)CCOC(=O)NC(C)(C)c5cccc(C(=C)C)c5)cc-4oc3c2)c1 | >10% wt % |

Would you kindly look at the next entry?
Ask: Write down Amount of dissolved compound (wt %), MeOH measured for item C=C(C)C(=O)OCCNC(=O)OCCN(CC)c1ccc2c(-c3ccccc3S(=O)(=O)[O-])c3cc/c(=[N+](\CCOC(=O)NCCOC(=O)C(=C)C)c4ccccc4)cc-3oc2c1
Result: >10% wt %

These data points were gathered from patent US10101655B2.
